Target chain: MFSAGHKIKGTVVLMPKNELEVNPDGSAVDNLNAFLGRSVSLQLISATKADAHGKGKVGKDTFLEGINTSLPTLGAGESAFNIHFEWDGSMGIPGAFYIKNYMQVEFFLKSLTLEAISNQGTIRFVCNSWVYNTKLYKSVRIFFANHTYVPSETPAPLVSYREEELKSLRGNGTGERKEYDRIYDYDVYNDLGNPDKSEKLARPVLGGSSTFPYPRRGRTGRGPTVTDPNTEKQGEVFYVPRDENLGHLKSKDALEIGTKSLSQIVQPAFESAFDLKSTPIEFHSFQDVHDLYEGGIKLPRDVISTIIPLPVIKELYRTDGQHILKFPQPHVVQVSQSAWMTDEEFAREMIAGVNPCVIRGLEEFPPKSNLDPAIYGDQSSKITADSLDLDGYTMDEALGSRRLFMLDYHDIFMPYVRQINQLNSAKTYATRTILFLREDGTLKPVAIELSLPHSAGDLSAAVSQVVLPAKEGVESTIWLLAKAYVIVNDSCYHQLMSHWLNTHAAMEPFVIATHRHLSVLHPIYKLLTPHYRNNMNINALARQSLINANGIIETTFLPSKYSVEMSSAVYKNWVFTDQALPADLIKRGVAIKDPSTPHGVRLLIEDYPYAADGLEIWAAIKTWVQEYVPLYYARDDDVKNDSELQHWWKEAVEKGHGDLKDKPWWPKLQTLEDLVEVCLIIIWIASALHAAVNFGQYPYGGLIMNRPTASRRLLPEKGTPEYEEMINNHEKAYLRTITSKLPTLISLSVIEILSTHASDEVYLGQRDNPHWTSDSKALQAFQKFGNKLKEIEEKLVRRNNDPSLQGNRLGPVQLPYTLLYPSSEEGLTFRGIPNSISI
READOUT_TYPE: pIC50
Numbers only, as −log10 of the molar value.

Take a look at these entries with their results.
COMPOUND	READOUT_TYPE	MEASURED_VALUE
Cc1ccc(C2=NN(C(N)=S)C(c3cn(-c4ccccc4)nc3-c3ccc4ccccc4c3)C2)cc1 (centres unmarked) [Compound 6c]	pIC50	5.68
NC(=S)N1N=C(c2ccccc2)CC1c1cn(-c2ccccc2)nc1-c1ccc2ccccc2c1 (centres unmarked) [Compound 6a]	pIC50	5.82
c1ccc(C2=NN(c3ccccc3)C(c3cn(-c4ccccc4)nc3-c3ccc4ccccc4c3)C2)cc1 (centres unmarked) [Compound 4a]	pIC50	5.60
Clc1ccc(C2=NN(c3ccccc3)C(c3cn(-c4ccccc4)nc3-c3ccc4ccccc4c3)C2)cc1Cl (centres unmarked) [Compound 4e]	pIC50	5.45
Cc1ccc(C2=NOC(c3cn(-c4ccccc4)nc3-c3ccc4ccccc4c3)C2)cc1 (centres unmarked) [Compound 5c]	pIC50	5.37

Each compound below has a reported value. Please supply its pIC50.
1. NC(=S)N1N=C(c2ccc(Cl)cc2)CC1c1cn(-c2ccccc2)nc1-c1ccc2ccccc2c1 (centres unmarked) [Compound 6d]
2. Cc1ccc(C2=NN(c3ccccc3)C(c3cn(-c4ccccc4)nc3-c3ccc4ccccc4c3)C2)cc1 (centres unmarked) [Compound 4c]
3. Clc1ccc(C2=NNC(c3cn(-c4ccccc4)nc3-c3ccc4ccccc4c3)C2)cc1Cl (centres unmarked) [Compound 3e]

Response:
1: 5.78; 2: 5.74; 3: 5.60

* * *

Field: melting point. Provide a value for each of the compounds that follow.

COMPOUND	MEASURED_VALUE
Clc1ccc(C2=NOC(c3cn(-c4ccccc4)nc3-c3ccc4ccccc4c3)C2)cc1 (stereo not shown)	185 to 186 °C
Cc1ccc(C2=NNC(c3cn(-c4ccccc4)nc3-c3ccc4ccccc4c3)C2)cc1 (stereo not shown)	187 to 188 °C
COc1ccc(C(=O)/C=C/c2cn(-c3ccccc3)nc2-c2ccc3ccccc3c2)cc1	187 to 188 °C

Prompt: Which value of melting point has been reported for Clc1ccc(C2=NN(c3ccccc3)C(c3cn(-c4ccccc4)nc3-c3ccc4ccccc4c3)C2)cc1Cl (stereo not shown) in the records?
Response: 172 to 173 °C
